# System: RXF 393
# assay_info: NCI tumour cell line growth inhibition, 48 h
Calls of active or inactive are those of the source. Cut-off read from the data, not from the text of the source: active = GI50 up to about 1.1 µM and inactive = higher.
Entries and their GI50 values follow.

>  <compound>
Cn1nc(-c2ccccc2)c2c(/C=C/c3ccccc3)onc2c1=O

>  <target_or_system>
RXF 393

>  <GI50>
46.1 µM (inactive)

$$$$

What GI50 value was documented for this compound, COc1nc(NC2OCC(O)C(O)C2O)c(NC2OCC(O)C(O)C2O)c(=O)n1C (centres undefined) ?
> 100 µM (inactive)

Ok, now Cc1cn(CCCCOC(=O)NC(CCCNC(=N)N)C(=O)O)c(=O)[nH]c1=O (centres undefined)
> 100 µM (inactive)

Item: COc1cc(C2c3cc4c(cc3[C@@H](OCCN(C)C)C3COC(=O)[C@H]23)OCO4)cc(OC)c1O (some centres undefined)
0.396 µM (active)

One more compound: CCOC(=O)c1sc2nc(SC)nc3c2c1N=CN3c1ccccc1Cl
18.1 µM (inactive)

Another compound: O=C(NCCCCCN1CCC2(CCCCC2)CC1)C(C1CCCCC1)C1CCCCC1
4.24 µM (inactive)

Another compound to look at: CS(=O)(=O)N1CC(CCl)c2ccc(NO)cc21 (centres undefined)
3.37 µM (inactive)

Do the same for CCOCc1cc(=O)c2cc3c(cc2o1)OC(C)(C)CC3 please
> 100 µM (inactive)

Also COC(C[C@H]1CCCC[C@]1(O)/C(=C\CO[Si](C(C)C)(C(C)C)C(C)C)Sc1ccccc1)OC , if possible.
16.1 µM (inactive)

CN(C)CN(C)c1nc(N(C)C)nc(N(C)CN(C)C)n1 , same question.
19.5 µM (inactive)

What do you have for CC(C)C1=Cc2ccc3c(c2C(=O)C1=O)CCCC3 ?
4.32 µM (inactive)

// repeat for Brc1cccc(/C=C/CN2CCN(CCOC(c3ccccc3)c3ccccc3)CC2)c1 and report
11.6 µM (inactive)

Also, S=C(N/N=C(/c1ccccc1)c1ccccn1)Nc1ccc(Cl)cc1 please.
1.85 µM (inactive)

What about CC(C)Cn1cnc2c(SCc3ccccn3)nc(N)nc21 ?
> 100 µM (inactive)
